Every entry's value here was drawn from patent US9403823B2.

Tested on: HuH7 cell line
experimentSummary: In vitro cell proliferation assay (MTT), HuH7
Format: cell-based
conditionSet: Homo sapiens, Huh-7; HuH7, 72 hr, MTT; read-out: EC50, anti-proliferative activity
Task for the reader: assign each of the following molecules its reported EC50.

Lookup: Form field: reported EC50 of CC(=O)c1cc2cc(NCc3cc(NC(=O)c4ccc(CN5CCN(C)CC5)cc4)ccc3C)cnc2[nH]1
Found: ≥ 1000 nM

Lookup: Form field: reported EC50 of CNC(=O)c1cc(Oc2ccc(NC(=O)Nc3ccc(Cl)c(C(F)(F)F)c3)cc2)ccn1 [Sorafenib, reference compound]
Found: 1000 to 3000 nM

Lookup: Form field: reported EC50 of CNC(=O)c1cc2cc(NCc3cc(NC(=O)c4ccc(CN5CCN(C)CC5)cc4)ccc3C)cnc2[nH]1
Found: ≥ 1000 nM

Lookup: Form field: reported EC50 of CC(=O)c1cc2cc(NC(=O)c3cc(NC(=O)c4ccc(CN5CCC(N(C)C)C5)c(C(F)(F)F)c4)ccc3C)cnc2[nH]1 (stereo not shown)
Found: ≥ 1000 nM
